target: Melanocortin receptor 3 (Homo sapiens, UniProt P41968); assay: Activity at hMC3R transfected in HEK293 cells assessed as intracellular cAMP accumulation; type: functional, cell-based
Sequence (P41968 whole entry): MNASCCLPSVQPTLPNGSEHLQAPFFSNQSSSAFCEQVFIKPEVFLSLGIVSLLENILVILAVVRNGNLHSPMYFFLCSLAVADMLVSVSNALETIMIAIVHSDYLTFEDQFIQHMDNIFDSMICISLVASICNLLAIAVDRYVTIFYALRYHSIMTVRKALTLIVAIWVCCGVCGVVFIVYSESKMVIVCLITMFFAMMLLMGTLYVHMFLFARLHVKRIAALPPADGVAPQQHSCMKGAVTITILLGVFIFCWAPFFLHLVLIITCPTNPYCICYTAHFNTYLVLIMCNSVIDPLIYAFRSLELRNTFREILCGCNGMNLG
Activity calls are given as the source filed them. The calls are words filed in the database; no cut-off is given here.

| ITEM SMILES | Activity |
| --- | --- |
| CC(=O)N[C@H]1CSSC[C@H](C(=O)N[C@@H](Cc2c[nH]c3ccccc23)C(N)=O)N(CCCCN=C(N)N)C(=O)[C@@H](Cc2ccccc2)NC(=O)[C@H](Cc2c[nH]cn2)NC1=O | inactive |
| CC(=O)N[C@H]1CSSC[C@@H](C(=O)N(CCCCN=C(N)N)[C@@H](Cc2c[nH]c3ccccc23)C(N)=O)NC(=O)[C@@H](Cc2ccccc2)NC(=O)[C@H](Cc2c[nH]cn2)NC1=O | inactive |
| CC(=O)N[C@H]1CSSC[C@@H](C(=O)N[C@@H](Cc2c[nH]c3ccccc23)C(N)=O)N(CCCCN=C(N)N)C(=O)[C@@H](Cc2ccccc2)NC(=O)[C@H](Cc2c[nH]cn2)NC1=O | inactive |

Data provenance: ChEMBL document CHEMBL1137337
